# credit: ChEMBL document CHEMBL1828608

# study-target: Prostaglandin G/H synthase 2 (Mus musculus) (UniProt Q05769)
# Sequence (whole entry): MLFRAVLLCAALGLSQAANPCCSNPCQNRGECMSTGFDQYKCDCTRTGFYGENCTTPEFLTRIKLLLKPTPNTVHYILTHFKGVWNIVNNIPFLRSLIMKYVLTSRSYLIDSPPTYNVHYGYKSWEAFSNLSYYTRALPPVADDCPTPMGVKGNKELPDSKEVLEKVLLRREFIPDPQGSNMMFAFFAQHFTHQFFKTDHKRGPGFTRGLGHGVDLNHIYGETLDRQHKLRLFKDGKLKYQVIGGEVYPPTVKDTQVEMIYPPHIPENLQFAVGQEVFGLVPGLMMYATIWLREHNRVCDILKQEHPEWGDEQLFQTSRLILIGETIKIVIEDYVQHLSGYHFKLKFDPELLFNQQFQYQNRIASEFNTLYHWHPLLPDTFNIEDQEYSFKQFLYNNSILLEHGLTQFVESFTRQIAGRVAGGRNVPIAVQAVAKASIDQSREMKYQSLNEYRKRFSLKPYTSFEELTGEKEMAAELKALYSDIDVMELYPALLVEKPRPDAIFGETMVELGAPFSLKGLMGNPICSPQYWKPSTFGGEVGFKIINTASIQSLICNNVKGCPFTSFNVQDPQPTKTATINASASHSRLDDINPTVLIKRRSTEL
# method-summary: Inhibition of COX2-mediated PGE2 production in LPS-induced mouse RAW264.7 cells at 10 uM after 24 hrs by ELISA
# Format: cell-based
recorded-endpoint: inhibition (%)
The answer is to be given in %; state only the numeric part.

Here is how some compounds turned out for inhibition.
O=c1cc(-c2ccccc2)oc2c(-c3ccsc3)c(O)cc(O)c12 ... 31.4
O=c1cc(-c2ccccc2)oc2c(-c3cccnc3)c(O)cc(O)c12 ... 48.1
O=c1cc(-c2ccccc2)oc2cc(O)cc(O)c12 ... 74
O=c1cc(-c2ccccc2)oc2c(-c3ccoc3)c(O)cc(O)c12 ... 26.7
Cc1c(O)cc(O)c2c(=O)cc(-c3ccccc3)oc12 ... 44.3

Fill in the blank: the reported inhibition of `O=c1cc(-c2ccccc2)oc2c(-c3ccncc3)c(O)cc(O)c12` is ____.
92.4
